B1: TPR t1 (parent)
chain: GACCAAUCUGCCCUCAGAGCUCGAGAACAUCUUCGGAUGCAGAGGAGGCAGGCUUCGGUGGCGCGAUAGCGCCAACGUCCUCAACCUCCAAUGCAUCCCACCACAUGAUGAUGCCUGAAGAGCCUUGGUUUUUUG

# Variants of: B1
# protocol text: polymerase ribozyme fitness, log enrichment relative to wild type (log ratio); higher = more active; in vitro selection for triplet polymerase activity
observation type: polymerase ribozyme fitness (log ratio)
Note: the reply should be a number with no unit written.

Solved entries (count: 3):
A5U G39U G47C C72U : -4.21
U14A U116A A121G : 0.0546
G44A A121U : 1.03

Sure, the documented polymerase ribozyme fitness (log ratio) for C3A C72A A111C is -1.3

Sure, the documented polymerase ribozyme fitness (log ratio) for G51A G113C G122U G135U is -7.38
